# assayed_target: T1, CD5L (AIM) (Homo sapiens, UniProt O43866 20-347)
# T1 sequence: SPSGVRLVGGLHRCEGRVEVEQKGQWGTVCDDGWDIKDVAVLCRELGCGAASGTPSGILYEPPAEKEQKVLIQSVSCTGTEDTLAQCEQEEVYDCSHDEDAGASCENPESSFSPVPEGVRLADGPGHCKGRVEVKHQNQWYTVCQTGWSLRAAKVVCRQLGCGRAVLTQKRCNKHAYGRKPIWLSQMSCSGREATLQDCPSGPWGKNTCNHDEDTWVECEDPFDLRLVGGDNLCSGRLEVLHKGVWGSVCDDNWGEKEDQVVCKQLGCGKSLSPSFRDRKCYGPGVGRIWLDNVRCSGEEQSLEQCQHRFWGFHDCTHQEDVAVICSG
# run_description: MST; Cy5-S76.T 2 nM, CD5L titrated; MST: S11/S23 in binding buffer pH 7.4, 1 mM MgCl2, 0.1% Tween 20, 1 nM labelled protein; S76 in TBS; S76.T (Cy5, 2 nM) in 50 mM Tris-HCl pH 7.8, 150 mM NaCl, 0.05% Tween 20; temperature not stated
# applied_conditions: protein: commercial; tags: His-tag; label: Cy5; hairpin
metric_name: Kd

binder="AGGUUGCAGCGUUCGACAGGAGGCUCACAACAG (structured_RNA, 2'-fluoro pyrimidines) [S76.T]" assay_result="10.1 nM"

These data points were gathered from paper PMC10133315.
